Tested on: MDA-MB-435
assay-remarks: NCI tumour cell line growth inhibition, 48 h; in the data active = GI50 below about 0.43 µM; inactive = the rest
Outcome codes: active, inactive

# molecule, target-or-system, classification
rows = [
    ("CSc1ccc(-c2cc(-c3ccc(NC(=O)CCCN4CCCC4)cc3)nc(-c3ccc(NC(=O)CCCN4CCCC4)cc3)c2)cc1", "MDA-MB-435", "inactive"),
    ("C[C@]12CC/C(=N\\N)C[C@@H]1CC[C@@H]1[C@@H]2CC[C@]2(C)/C(=N/N)CC[C@@H]12", "MDA-MB-435", "inactive"),
    ("CCN(CC)CCOc1ccc(Nc2ncc3cc(-c4c(Cl)cccc4Cl)c(=O)n(CCOC)c3n2)cc1", "MDA-MB-435", "inactive"),
    ("COc1ccc(C(O)c2cc3c(N)c(C(=O)Nc4cccc(Cl)c4C)sc3nc2C)cc1 (configuration not stated)", "MDA-MB-435", "inactive"),
    ("CCCCCCCCCCCCCC[P+](CCCCCC)(CCCCCC)CCCCCC", "MDA-MB-435", "active"),
    ("CC1=C(C(=O)Nc2ccc3[nH]ncc3c2)C(c2ccc(F)cc2)NC(=O)N1 (configuration not stated)", "MDA-MB-435", "inactive"),
    ("Nc1ccc(-c2nc3ccccc3[nH]2)c(O)c1", "MDA-MB-435", "inactive"),
    ("Nc1ccc(N=Nc2ccccc2)c(N)n1", "MDA-MB-435", "inactive"),
    ("Nc1c(C(=O)c2cccc(-c3ccc[n+]([O-])c3)c2)cnn1-c1ccc(F)cc1F", "MDA-MB-435", "inactive"),
    ("O=CN1N=C(c2ccc(Nc3ccnc4cc(Cl)ccc34)cc2)CC1c1ccccc1 (configuration not stated)", "MDA-MB-435", "inactive"),
    ("CN(C)C(=S)NN=C(c1ccccn1)c1ccccn1", "MDA-MB-435", "active"),
    ("COc1ccc(Nc2ncccc2/C=C/C(=O)c2cc(OC)c(OC)c(OC)c2)cc1", "MDA-MB-435", "inactive"),
]

---

Test system: A549 NSCLC
assay-remarks: NCI tumour cell line growth inhibition, 48 h
Where a SMILES comes first, the peptide text is derived from it. The star is where a group is joined. Boc = CC(C)(C)OC(=O)*
endpoint-label: TGI

# molecule, target-or-system, endpoint-label, reported
data = [
    ("ON(CCc1ccncc1)Cc1ccccc1", "A549 NSCLC", "TGI", "> 100 µM"),
    ("COc1cc(N=Nc2ccccc2)cc(/C=N\\[N-]C(N)=S)c1[O-].COc1cc(N=Nc2ccccc2)cc(/C=N\\[N-]C(N)=S)c1[O-].[Fe+4]", "A549 NSCLC", "TGI", "> 100 µM"),
    ("Nc1ccc(-c2nc3cc(F)ccc3s2)cc1I", "A549 NSCLC", "TGI", "> 100 µM"),
    ("Cc1nccn1S(=O)(=O)c1ccc(Br)cc1Br", "A549 NSCLC", "TGI", "> 100 µM"),
    ("CCOC(=O)C1=C(C)C(C(=O)OC)/C(=C/c2cccc3cccnc23)C1=O (configuration not stated)", "A549 NSCLC", "TGI", "> 10 µM"),
    ("Cc1cc(N=Cc2c(CO)cnc(C)c2O)c(N=Cc2c(CO)cnc(C)c2O)cc1C.[Zn]", "A549 NSCLC", "TGI", "> 100 µM"),
    ("Nc1c(C(=O)c2cccc(-c3ccc[n+]([O-])c3)c2)cnn1-c1ccc(F)cc1F", "A549 NSCLC", "TGI", "> 25 µM"),
    ("O=CN1N=C(c2ccc(Nc3ccnc4cc(Cl)ccc34)cc2)CC1c1ccccc1 (configuration not stated)", "A549 NSCLC", "TGI", "> 100 µM"),
    ("Cn1cc(NC(=O)c2cc(NC(=O)Nc3cc(C(=O)Nc4cc(C(=O)NCCC(=N)N)n(C)c4)n(C)c3)cn2C)cc1C(=O)NCCC(=N)N", "A549 NSCLC", "TGI", "83.4 µM"),
    ("CCN(CC)C(=S)N/N=C/c1ccccn1", "A549 NSCLC", "TGI", "1.39 µM"),
    ("CCOC(=O)c1c2c(n(-c3ccc(OC)cc3)c1C)C(=O)C(=O)c1ccccc1-2", "A549 NSCLC", "TGI", "4.46 µM"),
    ("CSc1nc(NC2OCC(O)C(O)C2O)c(N)c(=O)n1C (configuration not stated)", "A549 NSCLC", "TGI", "> 100 µM"),
    ("Cc1ccccc1S(=O)(=O)N1[C@H](c2ccc(Cl)cc2)C(C(=O)N[C@@H](Cc2ccccc2)C(N)=O)=C[C@@H]1C(C)(C)C", "A549 NSCLC", "TGI", "13.1 µM"),
    ("O=c1[nH]c(=O)n(COCc2ccccc2)c2ccc([N+](=O)[O-])cc12", "A549 NSCLC", "TGI", "> 100 µM"),
    ("C[C@@H]1COCCN1c1nc(-c2cnc(N)cc2C(F)F)nc(N2[C@H](C)COC[C@@H]2C)n1", "A549 NSCLC", "TGI", "12.1 µM"),
    ("CCCn1c(=O)c2ccccc2[n+]2c(-c3ccc([N+](=O)[O-])cc3)csc12", "A549 NSCLC", "TGI", "> 100 µM"),
    ("NC(=O)C(Br)CBr (configuration not stated)", "A549 NSCLC", "TGI", "10.6 µM"),
    ("CCNC(=O)/C=C/CCC#Cc1ccc(-c2ccc(-c3cccs3)s2)s1", "A549 NSCLC", "TGI", "> 100 µM"),
    ("CNS(=O)(=O)NN(C)S(=O)(=O)c1ccc(Cl)cc1", "A549 NSCLC", "TGI", "> 100 µM"),
    ("COc1ccc(C(=C(I)c2ccccc2)c2ccc(OC)cc2)cc1", "A549 NSCLC", "TGI", "> 100 µM"),
    ("C[C@@H]1C[C@]2(C[C@@H](C)[C@H]3C(C[C@@]4(C)CCC[C@@H]5C6=C[C@H](CCC34C)OC6=CC(=O)OC5(C)C)O2)OC1=O (some centres not stated)", "A549 NSCLC", "TGI", "> 51.5 µM"),
    ("Cc1ccc(NC(=S)Nc2c(C)n(C)n(-c3ccccc3)c2=O)cc1", "A549 NSCLC", "TGI", "> 100 µM"),
    ("O=C(Nc1nnc(-c2ccccc2)o1)C(SC(=S)N1CCOCC1)c1ccccc1 (configuration not stated)", "A549 NSCLC", "TGI", "> 100 µM"),
    ("O=C(Nc1c(Cl)cc([N+](=O)[O-])cc1Cl)C(=O)C1C(=O)NC(=S)NC1=O", "A549 NSCLC", "TGI", "> 100 µM"),
    ("C=CC(C)(C)N[C@@H](C(=O)N1CCC[C@H]1c1nc(-c2nc(C(=O)OCC=C(C)C)c(C)o2)c(C)o1)C(C)C", "A549 NSCLC", "TGI", "> 100 µM"),
    ("COc1ccc(Nc2ccnc(NCCNc3ccnc4cc(Cl)ccc34)n2)cc1", "A549 NSCLC", "TGI", "13.7 µM"),
    ("CCN(CC)CCOc1ccc(Nc2ncc3cc(-c4c(Cl)cccc4Cl)c(=O)n(CCOC)c3n2)cc1", "A549 NSCLC", "TGI", "4.18 µM"),
    ("COC(=O)c1nc(-c2ccc3c(n2)C(=O)C(N)=C(OC)C3=O)c(N)c(-c2ccc(OC)c(OC)c2O)c1C", "A549 NSCLC", "TGI", "2.76 µM"),
    ("CCCCCCOc1ccc(/C=N/NC(N)=S)cc1", "A549 NSCLC", "TGI", "> 100 µM"),
    ("CC(NC(=O)OCc1ccccc1)NC(=O)C(CC(=O)OC(C)(C)C)NC(=O)OC(C)(C)C (configuration not stated)", "A549 NSCLC", "TGI", "> 100 µM"),
    ("CC(=NCCN(CCN=C(C)c1c(O)cc(C)oc1=O)CCN=C(C)c1c(O)cc(C)oc1=O)c1c(O)cc(C)oc1=O", "A549 NSCLC", "TGI", "> 100 µM"),
    ("CS(=O)(=O)N(CCC#N)c1ccc(/C=N/NC(=O)CC(=O)Nc2cccc(Cl)c2)cc1", "A549 NSCLC", "TGI", "> 100 µM"),
    ("CO/C(=N\\N=C\\c1ccc(Cl)cc1Cl)c1ccncc1", "A549 NSCLC", "TGI", "> 10 µM"),
    ("Cc1cc2ccccc2n1CC(=O)N1CCCC1", "A549 NSCLC", "TGI", "> 100 µM"),
    ("COc1cccc2c1C1(O)C2CCCC12OCCCO2 (configuration not stated)", "A549 NSCLC", "TGI", "> 100 µM"),
    ("CC(=O)NC1C(OCc2ccccc2)OC(CO)C(O)C1OCC(=O)NC(C)C(=O)NC(CCC(=O)NCCCCCNc1c2ccccc2nc2cccc([N+](=O)[O-])c12)C(N)=O (configuration not stated)", "A549 NSCLC", "TGI", "0.00142 µM"),
    ("COC(=O)C(Cc1c[nH]c2ccccc12)NC(=O)C(Cc1c[nH]c2ccccc12)NC(=O)C(Cc1c[nH]c2ccccc12)NC(=O)C(Cc1c[nH]c2ccccc12)NC(=O)OC(C)(C)C (configuration not stated) (Boc-WWWW-OMe; configuration not given here)", "A549 NSCLC", "TGI", "> 100 µM"),
]
